Experiment description: HepG2 cell cytotoxicity, dose response, cytotoxicity control, CellTiter-Glo luminescence, cherry-pick, set 2 (AID 743395)
Condition parameters: HepG2 viability, CellTiter-Glo ATP luminescence, 72 h; series mostly up to 26 µM
The whole screen tested about 1,200 compounds, of which about 480 (40%) were called active. So high a share suggests a set chosen from earlier hits. These entries were drawn from the full list. Potency and affinity values are given separately.
Reported endpoint: outcome

Solved entries:
compound=Cc1c(CCC(=O)O)c(=O)oc2c(C)c(OCc3ccccc3Cl)ccc12 reported_endpoint=outcome result=inactive
compound="CCCOCCOC(=O)c1[nH]c2c(c1C)C(=O)CC(c1cc(OC)ccc1OC)C2 (stereo not given)" reported_endpoint=outcome result=inactive
compound=CSc1ccccc1NC(=O)COC(=O)CCC(=O)c1ccc(F)cc1 reported_endpoint=outcome result=inactive
compound=C[C@H]1C[C@H]2[C@@H]3CCC4=CC(=O)C=C[C@]4(C)[C@@]3(F)[C@@H](O)C[C@]2(C)[C@@]1(O)C(=O)CO reported_endpoint=outcome result=inactive
compound=Cc1cc(/C=N/NC(N)=S)c(O)c(/C=N/NC(N)=S)c1 reported_endpoint=outcome result=inactive

input: Please report the recorded outcome for `S=C(NCCc1ccccc1)Nc1nccs1` .
output: inactive

input: Field request: outcome | item: `CC(C)C#Cc1ccc([C@@H]2[C@@H](CO)N3C(=O)CN(S(=O)(=O)c4ccccc4)C[C@@H]23)cc1`
output: inactive

input: I'd like to know its outcome. The compound in question is `C/C=C/c1ccc([C@@H]2[C@H](CO)N3CCCCN(S(=O)(=O)c4ccccc4)C[C@@H]23)cc1`
output: inactive

input: For `COc1ccccc1/C=N/NC(=O)c1cc2c(OC)c(OC)ccc2[nH]1` , what is its reported outcome?
output: inactive

input: Endpoint output: outcome of O=C1CCC(CCc2nc3ccccc3[nH]2)(c2ccccc2)C(=O)N1 (stereo not given) . Value?
output: inactive
